- Test system: Plasmodium falciparum
- procedure-details: Antimalarial activity against chloroquine-sensitive Plasmodium falciparum 3D7
- Type: functional, organism-based
Some compounds, each annotated with its measured IC50.
Could you give me the number in nM? Just the number is fine.

Measured on Plasmodium falciparum, Clc1ccc2c(N3CCN(CCCN4CCN(c5ccnc6cc(Cl)ccc56)CC4)CC3)ccnc2c1 has a documented IC50 of 36.9

Item: CCN(CC)Cc1cc(Nc2ccnc3cc(Cl)ccc23)ccc1O | System: Plasmodium falciparum | IC50: 18.4

---

- Test system: Plasmodium falciparum
- procedure-details: Reduction of [3H]chloroquine uptake in chloroquine-sensitive Plasmodium falciparum 3D7 infected erythrocytes after 90 min
- Type: functional, organism-based
Activity calls are given as the source filed them. No cut-off for these calls is given here.
endpoint-name: Activity

Use these answered entries as a reference point.
Clc1ccc2c(N3CCN(CCCN4CCN(c5ccnc6cc(Cl)ccc56)CC4)CC3)ccnc2c1; Active
C[C@H]1[C@@H](O)O[C@@H]2O[C@@]3(C)CC[C@H]4[C@H](C)CC[C@@H]1[C@@]24OO3; Active
CCN(CC)CCCC(C)Nc1ccnc2cc(Cl)ccc12 (stereo not given); Active
CO[C@H]1O[C@@H]2O[C@@]3(C)CC[C@H]4[C@H](C)CC[C@@H]([C@H]1C)[C@@]24OO3; Active

Activity for Plasmodium falciparum with input OC(c1cc(C(F)(F)F)nc2c(C(F)(F)F)cccc12)C1CCCCN1 (stereo not given) equals Active
